Reference source for all entries: the supplement of paper PMC3334620

- TEST TARGET: Sko1 (UniProt Q02100)
- Sequence: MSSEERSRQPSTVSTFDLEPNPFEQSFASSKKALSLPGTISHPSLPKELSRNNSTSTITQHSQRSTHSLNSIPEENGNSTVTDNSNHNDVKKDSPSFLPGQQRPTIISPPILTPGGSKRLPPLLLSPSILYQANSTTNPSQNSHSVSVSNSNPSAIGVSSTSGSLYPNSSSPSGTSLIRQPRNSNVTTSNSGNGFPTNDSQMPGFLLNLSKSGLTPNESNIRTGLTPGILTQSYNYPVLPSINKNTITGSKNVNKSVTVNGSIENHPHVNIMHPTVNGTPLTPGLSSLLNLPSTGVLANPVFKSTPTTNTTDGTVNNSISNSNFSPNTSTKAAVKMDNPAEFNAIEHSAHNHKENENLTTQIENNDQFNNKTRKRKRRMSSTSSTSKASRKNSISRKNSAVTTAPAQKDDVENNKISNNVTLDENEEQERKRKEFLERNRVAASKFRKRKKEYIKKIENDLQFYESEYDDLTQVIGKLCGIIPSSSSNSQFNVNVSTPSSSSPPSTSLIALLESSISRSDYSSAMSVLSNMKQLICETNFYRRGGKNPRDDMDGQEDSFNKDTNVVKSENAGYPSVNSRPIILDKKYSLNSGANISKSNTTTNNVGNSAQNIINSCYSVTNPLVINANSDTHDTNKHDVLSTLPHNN
- MEASUREMENT PROTOCOL: PBM E-score (8-mer binding enrichment) (E-score (-0.5 to 0.5)); higher = stronger / more preferred TF binding
- CONDITION LABEL: protein concentration: 200 nM; construct: GST-full length
Over roughly 33,000 sequences, “E-score (-0.5 to 0.5)” has its median near -0.032; the highest 2% begin near 0.36. Shown is part of a subset that was picked to be rich in the highest values.
Catalogue of PBM E-score readings, one per entry.
READOUT NAME: PBM E-score

> print(dat)
    polymer.sequence  value.reported
 1          ATACGTGG           0.429
 2          CGCTTGCA          -0.102
 3          CACGCGTC           0.291
 4          GGGGCGGA          -0.338
 5          CACGCGTA           0.311
 6          ATTCTATG          0.0207
 7          GACGCGTA           0.388
 8          AGCTCAAA          0.0839
 9          CGTAGTAG           0.309
10          ACGAGTCC         -0.0325
11          TACTAGAA           0.124
12          AAAGGCCA          -0.118
13          ATGAGTCC          0.0501
14          GACGGGCA          -0.145
15          AGACGTGG           0.203
16          TACGCGTA           0.387
17          CTCGCGTA           0.212
18          GTACGTGA           0.416
19          TACGCGCA           0.209
20          AATCTGCC         -0.0515
21          CACTCCTC          -0.168
22          AGACGTGA           0.312

----------
- TEST TARGET: Sko1 (UniProt Q02100)
- Sequence: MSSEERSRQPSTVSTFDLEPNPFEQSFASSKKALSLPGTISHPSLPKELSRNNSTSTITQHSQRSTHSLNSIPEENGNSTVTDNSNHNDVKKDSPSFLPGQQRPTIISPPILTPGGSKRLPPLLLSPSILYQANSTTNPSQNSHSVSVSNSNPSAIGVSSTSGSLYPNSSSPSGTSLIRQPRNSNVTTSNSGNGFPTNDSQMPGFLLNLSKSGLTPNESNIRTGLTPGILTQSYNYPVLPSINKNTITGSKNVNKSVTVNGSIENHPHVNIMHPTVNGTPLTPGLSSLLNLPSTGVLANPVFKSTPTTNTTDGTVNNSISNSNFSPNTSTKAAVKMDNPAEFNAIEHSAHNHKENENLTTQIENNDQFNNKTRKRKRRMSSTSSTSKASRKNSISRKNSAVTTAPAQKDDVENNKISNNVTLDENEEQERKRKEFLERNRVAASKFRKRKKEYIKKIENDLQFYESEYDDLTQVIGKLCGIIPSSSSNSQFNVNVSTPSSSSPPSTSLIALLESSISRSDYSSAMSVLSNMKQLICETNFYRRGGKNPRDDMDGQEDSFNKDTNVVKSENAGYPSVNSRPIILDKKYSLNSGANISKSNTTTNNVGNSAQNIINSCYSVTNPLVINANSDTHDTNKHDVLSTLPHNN
- MEASUREMENT PROTOCOL: PBM E-score (8-mer binding enrichment) (E-score (-0.5 to 0.5)); higher = stronger / more preferred TF binding
- CONDITION LABEL: protein concentration: 200 nM; construct: GST-full length
Whole data set: some 33,000 sequences, median “E-score (-0.5 to 0.5)” near -0.032, cut for the highest 2% near 0.36. For the sample, the highest values were picked, then their nearest neighbours and some sequences at random.
Class key for PBM E-score values: bottom (below -0.07), middle (-0.07 to below 0.2), top (0.2 or more)

> print(dat)
    polymer.sequence  label.value
 1          GGACCCTA       bottom
 2          CAAGTACG       middle
 3          AATTCAAA       middle
 4          AATGCGTA          top
 5          CACGTACC          top
 6          AGCTCAAC       bottom
 7          AATGCGTG          top
 8          ACACATAC       middle
 9          CGCGTACG          top
10          CAATAGTC       bottom
11          CATGCGTA          top
12          CCCGTACA       bottom
13          TCAGCCGA       bottom
14          GATGCGTA          top
15          ACTCAGCT       bottom
16          CTCCTTGA       bottom
17          CCCGTACG       middle
18          AACGAGTG       middle
19          AATGCGTC       middle
20          CTCGTACC       middle
21          AGCGTACG          top

----------
- TEST TARGET: Sko1 (UniProt Q02100)
- Sequence: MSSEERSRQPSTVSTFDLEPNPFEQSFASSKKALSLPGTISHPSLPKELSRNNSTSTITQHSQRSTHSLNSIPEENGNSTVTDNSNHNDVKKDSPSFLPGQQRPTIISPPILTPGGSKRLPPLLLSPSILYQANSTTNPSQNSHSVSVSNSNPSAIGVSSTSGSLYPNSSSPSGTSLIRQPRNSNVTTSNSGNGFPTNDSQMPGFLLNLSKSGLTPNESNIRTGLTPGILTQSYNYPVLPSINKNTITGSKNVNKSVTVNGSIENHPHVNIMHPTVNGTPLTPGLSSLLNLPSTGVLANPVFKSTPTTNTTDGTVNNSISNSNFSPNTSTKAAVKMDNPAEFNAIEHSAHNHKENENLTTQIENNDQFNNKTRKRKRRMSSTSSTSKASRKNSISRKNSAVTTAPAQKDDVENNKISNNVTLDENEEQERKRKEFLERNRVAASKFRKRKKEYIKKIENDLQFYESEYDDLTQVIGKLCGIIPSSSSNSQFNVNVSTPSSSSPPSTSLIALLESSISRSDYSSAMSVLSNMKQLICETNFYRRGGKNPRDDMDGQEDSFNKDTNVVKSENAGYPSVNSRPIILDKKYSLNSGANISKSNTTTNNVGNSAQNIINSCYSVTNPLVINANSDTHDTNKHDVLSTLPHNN
- MEASUREMENT PROTOCOL: PBM E-score (8-mer binding enrichment) (E-score (-0.5 to 0.5)); higher = stronger / more preferred TF binding
- CONDITION LABEL: protein concentration: 200 nM; construct: GST-full length
Whole data set: some 33,000 sequences, median “E-score (-0.5 to 0.5)” near -0.032, cut for the highest 2% near 0.36. The sample holds the highest values, similar sequences and a random draw of the others, so the mix is not that of the screen.
Decision: PBM E-score compared against 0.02; not below it gives label 1, below it gives label 0.

> print(dat)
    polymer.sequence  label.value
 1          CATACCCA      label 1
 2          GTCATGAC      label 1
 3          AACTCCAG      label 0
 4          ATCATGAG      label 1
 5          GTCATGAA      label 1
 6          ACGTTCTG      label 1
 7          AAGACCCC      label 0
 8          GGTCACGA      label 0
 9          GACCTAGA      label 0
10          ATACGTTG      label 1
11          CTACTCAC      label 1
12          AGTCACGA      label 1
13          CTTAATGC      label 0
14          ATCCATGG      label 0
15          ATCATGAA      label 1
16          CGCCCTGC      label 0
17          GACTTTGC      label 0
18          ATATGCCA      label 0
19          AAGAGAAC      label 1
20          AAGTTTTA      label 1
21          ATCAGGTG      label 0
22          AGCGCTGC      label 0
